Test system: HCT-116
Method Notes: NCI tumour cell line growth inhibition, 48 h
Calls of active or inactive are those of the source. No stated cut-off is given here; in the data, active = GI50 up to about 1.1 µM and inactive = higher.
A correct response names exactly one class from active, inactive

For `Clc1ccc(Nc2nnc(CNc3ccc(-c4nnc(Nc5ccc(Cl)cc5)s4)cc3)s2)cc1` , which call appears in the assay record?
inactive

---

Test system: Hs-578T
Method Notes: NCI tumour cell line growth inhibition, 48 h
Calls of active or inactive are those of the source. Rule as the data show it: active = GI50 up to about 1.1 µM and inactive = higher.
Quantity: GI50

Some molecules with known GI50 results, for comparison:
Output GI50 of `O=C1c2ccccc2N1C(=O)c1ccccc1[N+](=O)[O-]`
56.1 µM (inactive)

Output GI50 of `Cc1ccc2nc(/C=N/c3ccc(Cl)cc3)cc(C)c2c1`
15.8 µM (inactive)

Output GI50 of Cc1ccc2c(c1)C(O)(c1ccccc1)CCS2 (stereo not drawn)
34.1 µM (inactive)

Output GI50 of NC(Cc1ccccc1)C(=O)O (stereo not drawn)
> 100 µM (inactive)

Output GI50 of NC1CC(=O)c2cc(Cl)sc21 (stereo not drawn)
> 100 µM (inactive)

Output GI50 of `O=c1oc2ccc3ccccc3c2cc1-c1cn2ccccc2n1`
35.6 µM (inactive)

***
Output GI50 of CN1C(=O)C(CC=O)(C(C)(C)C)c2ccccc21 (stereo not drawn)
56.6 µM (inactive)

Output GI50 of COc1c(C)c(C/C=C(\C)CCCC(C)CCCC(C)CCCC(C)C)c(OC)c2ccccc12 (stereo not drawn)
> 100 µM (inactive)

Output GI50 of `COc1cc2cc[n+](C)c(Cc3ccc(Oc4cc(Cc5c6cc(OC)c(OC)cc6cc[n+]5C)ccc4OC)cc3)c2cc1OC`
> 100 µM (inactive)

Output GI50 of `COc1cc2c(/C=C3/C(=O)Nc4ccc(Cl)cc43)c(Cl)n(Cc3ccccc3)c2cc1C`
4.56 µM (inactive)
